FYI, the data here is from ChEMBL document CHEMBL3885861.

Organism: Rattus norvegicus
Test method notes: Open TG-GATES - Regimen: Daily Repeat
Format: toxicity, organism-based, Sprague-Dawley
Design: regimen Daily Repeat, gender Male, age 6 weeks
Measurement conditions: in vivo, po, 0 mg/kg, […], tissue Plasma, route gavage, dose level Control, time 7 day
Use 0.02 mg/dL as the dividing line for DBIL, with the line itself on the 1 side and lower values as 0.

Worked examples follow.
Evaluate CSc1ccc2c(c1)N(CCC1CCCCN1C)c1ccccc1S2 (stereo not given) : DBIL at minimum 0.02 mg/dL?
0

Quick check, DBIL >= 0.02 mg/dL? `O=C(O)c1cc(/N=N/c2ccc(S(=O)(=O)Nc3ccccn3)cc2)ccc1O`
1

Assess whether reported DBIL for `C[C@H](CS)C(=O)N1CCC[C@H]1C(=O)O` sits at 0.02 mg/dL or higher.
0

Kindly determine if DBIL recorded for `COc1ccc2c(c1)c(CC(=O)O)c(C)n2C(=O)c1ccc(Cl)cc1` is above or exactly 0.02 mg/dL.
0

---
Determine whether this molecule has DBIL no lower than 0.02 mg/dL: `COc1ccc(Cc2nccc3cc(OC)c(OC)cc23)cc1OC`
0
